tgt: BRAF V600E (Homo sapiens, UniProt P15056, V600E)
Construct: endogenous C-terminal HiBiT fusion tag on BRAF V600E allele; endogenous in cells; host or cells: A375 clone 1F10 (CRISPR-Cas9 knock-in of the HiBiT tag; parental A375 from ATCC)
Sequence (P15056 whole entry V600E, the tested form may be a part): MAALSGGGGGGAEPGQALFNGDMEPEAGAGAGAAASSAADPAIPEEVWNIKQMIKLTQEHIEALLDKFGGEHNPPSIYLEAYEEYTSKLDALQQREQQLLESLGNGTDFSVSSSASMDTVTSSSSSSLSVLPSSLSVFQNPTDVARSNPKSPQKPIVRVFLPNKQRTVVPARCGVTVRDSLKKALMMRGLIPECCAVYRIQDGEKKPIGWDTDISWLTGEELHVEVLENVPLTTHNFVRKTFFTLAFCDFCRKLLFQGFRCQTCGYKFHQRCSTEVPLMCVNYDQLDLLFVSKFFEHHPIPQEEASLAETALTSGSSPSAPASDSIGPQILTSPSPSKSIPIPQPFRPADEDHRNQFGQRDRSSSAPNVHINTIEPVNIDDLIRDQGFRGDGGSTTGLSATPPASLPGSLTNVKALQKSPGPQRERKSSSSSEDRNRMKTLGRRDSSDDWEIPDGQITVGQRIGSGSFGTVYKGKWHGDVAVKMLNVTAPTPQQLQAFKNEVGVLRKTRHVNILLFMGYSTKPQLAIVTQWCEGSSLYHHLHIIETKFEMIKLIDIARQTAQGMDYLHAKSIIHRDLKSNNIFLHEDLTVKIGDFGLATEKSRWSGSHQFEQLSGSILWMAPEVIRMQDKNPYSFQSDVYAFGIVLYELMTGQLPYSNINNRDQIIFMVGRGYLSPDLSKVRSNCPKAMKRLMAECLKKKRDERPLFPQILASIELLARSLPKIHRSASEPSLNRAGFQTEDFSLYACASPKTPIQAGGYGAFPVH
testMethodNotes: BRAF HiBiT degradation assay, C-terminal HiBiT-tagged BRAF V600E A375 cells (clone 1F10), Nano-Glo HiBiT Lytic assay
Assay type: cell-based
testContext: A375 (BRAF V600E); DC50 at 50%: fitted conc. at Y=50

compound	tgt	DC50
CCCS(=O)(=O)Nc1cccc(-c2nc(C(C)(C)C)sc2-c2ccnc(Nc3cccc(C4CCN(CC5CCN(c6ccc7c(=O)n(C8CCC(=O)NC8=O)ccc7c6)CC5)CC4)c3)n2)c1F (racemic) [Compound 76]	BRAF V600E (Homo sapiens, UniProt P15056, V600E)	10 to 50 nM
CCCS(=O)(=O)Nc1cccc(-c2cn(C3CCN(C(=O)C4CCN(C(=O)C5CCN(c6ccc(C7CCC(=O)NC7=O)cn6)CC5)CC4)CC3)nc2-c2ccncc2)c1F (racemic) [Compound 7]	BRAF V600E (Homo sapiens, UniProt P15056, V600E)	10 to 50 nM
CCCS(=O)(=O)Nc1cccc(-c2nc(C(C)(C)C)sc2-c2ccnc(Nc3ccc(N4CCN(CC5CCN(c6ccc([C@@H]7CCC(=O)NC7=O)cc6)CC5)CC4)cc3)n2)c1F [Compound 58]	BRAF V600E (Homo sapiens, UniProt P15056, V600E)	10 to 50 nM
CCCS(=O)(=O)Nc1cccc(-c2nc(C(C)(C)C)sc2-c2ccnc(Nc3ccc(C4CCN(C(=O)CC5CCN(C6CCN(c7ccc8c(c7)C(=O)N(C7CCC(=O)NC7=O)C8=O)CC6)CC5)CC4)cc3)n2)c1F (racemic) [Compound 158]	BRAF V600E (Homo sapiens, UniProt P15056, V600E)	50 to 500 nM
CCCS(=O)(=O)Nc1cccc(-c2nc(-c3ccc(C4CCN(C(=O)CC5CCN(c6ccc(C7CCC(=O)NC7=O)cn6)CC5)CC4)cc3)sc2-c2ccnc(N)n2)c1F (racemic) [Compound 207]	BRAF V600E (Homo sapiens, UniProt P15056, V600E)	10 to 50 nM

The values you see were collected from patent US20260317324A1.
